Target: G-protein coupled receptor 151 (Homo sapiens) (UniProt Q8TDV0)
Sequence (Q8TDV0 whole entry, looked up): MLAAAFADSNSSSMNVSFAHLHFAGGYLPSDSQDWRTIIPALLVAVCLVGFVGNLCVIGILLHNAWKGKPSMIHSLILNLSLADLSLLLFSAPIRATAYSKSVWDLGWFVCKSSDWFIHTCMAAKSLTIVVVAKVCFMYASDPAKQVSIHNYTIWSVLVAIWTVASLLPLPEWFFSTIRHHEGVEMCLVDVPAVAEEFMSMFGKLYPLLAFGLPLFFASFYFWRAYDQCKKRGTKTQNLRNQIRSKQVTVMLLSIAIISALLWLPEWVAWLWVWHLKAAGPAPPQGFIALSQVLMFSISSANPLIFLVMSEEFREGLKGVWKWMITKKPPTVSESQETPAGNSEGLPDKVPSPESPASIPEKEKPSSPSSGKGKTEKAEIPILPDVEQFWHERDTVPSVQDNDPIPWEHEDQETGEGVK
Experiment: activators of human GPR151, primary screen, cell-based, PathHunter beta-arrestin, luminescence (AID 1508602);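 note: 0% = median of compound wells and 100% = cells with positive control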
Details: PathHunter beta-arrestin GPR151 cells, at 11.2 µM, active compounds read high
Screen size: about 650,000 compounds; about 6,800 (1%) were called active. For the sample, actives were picked, then their nearest neighbours and some compounds at random.
Endpoint name: activation (%)
Return type: number; implicit unit %.

Reference set, count: 2
[[record]]
chem_smiles = "CC1(C)Oc2ccc(C(=O)N3CCOCC3)cc2N(CC(=O)Nc2ccccc2)C1=O"
assayed_target = "G-protein coupled receptor 151 (Homo sapiens) (UniProt Q8TDV0)"
recorded_result = -0.343

[[record]]
chem_smiles = "Cc1ccc(S(=O)(=O)C2(C(=O)Nc3ccc([N+](=O)[O-])cn3)CC2)cc1"
assayed_target = "G-protein coupled receptor 151 (Homo sapiens) (UniProt Q8TDV0)"
recorded_result = 0.544


What does the record list as activation for `CCNc1nc(NCC)nc(C(=O)O)n1` ? -0.247

What does the record list as activation for `O=C(NCCOc1ccccc1)c1cnc(Nc2cccnc2)s1` ? 0.0811

What does the record list as activation for `O=C(c1cccc(N2C(=O)c3ccccc3C2=O)c1)N1CCOCC1` ? -0.354

----------
Known activation of a selection of compounds
Molecular target: G-protein coupled receptor 151 (Homo sapiens) (UniProt Q8TDV0)
Test: activators of human GPR151, primary screen, cell-based, PathHunter beta-arrestin, luminescence (AID 1508602);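 note: 0% = median of compound wells and 100% = cells with positive control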
Details: PathHunter beta-arrestin GPR151 cells, at 11.2 µM, active compounds read high
Screen size: about 650,000 compounds; about 6,800 (1%) were called active. The full list was thinned out, with actives kept by preference.

Reference set, count: 4
[[record]]
compound = "OCCC1CN(Cc2ccc3cc(F)ccc3n2)CCN1C1CCCC1 (configuration not stated)"
recorded_result = "9.5% (active)"

[[record]]
compound = "Cc1ccc(CNC(=O)CCC2CCCN(C(=O)c3cccc(-c4ccco4)c3)C2)o1 (configuration not stated)"
recorded_result = "-0.6% (inactive)"

[[record]]
compound = "CCCn1c(=O)c2c(nc3n(-c4ccc(C)cc4)c(C)c(C)n23)n(C)c1=O"
recorded_result = "3.26% (inactive)"

[[record]]
compound = "COc1ccc(C2(C(=O)Nc3ccc(C(=O)NCc4ccccc4)cc3)CCOCC2)cc1"
recorded_result = "0.34% (inactive)"


What does the record list as activation for `CC(C)CNC(=O)c1ccccc1NC(=O)c1ccc([N+](=O)[O-])cc1` ? 1.87% (inactive)

What does the record list as activation for `Cc1nc(=S)[nH]c(C)c1CCC(=O)O` ? 0.381% (inactive)

What does the record list as activation for `O=C(/C=C/c1cccc([N+](=O)[O-])c1)Nn1c(-c2cccs2)nc2ccccc2c1=O` ? 1.05% (inactive)

What does the record list as activation for `Cc1nc2nc(SCc3ccc([N+](=O)[O-])cc3)nn2c(C)c1Cc1c(F)cccc1Cl` ? 5.69% (active)

What does the record list as activation for `S=C(NCc1ccccc1)NCc1nc2ccccc2[nH]1` ? 1.09% (inactive)

What does the record list as activation for CCC(C(=O)N1CCCCC1)n1c(C)c2cnn(-c3ccccc3)c(=O)c2c1C (configuration not stated) ? 5.32% (active)

What does the record list as activation for CC(C(=O)NCCN1CCOCC1)n1c2ccccc2c2cn[nH]c(=O)c21 (configuration not stated) ? 6.21% (active)

What does the record list as activation for OCCC1CN(Cc2cccc(F)c2)CCN1C1CCCC1 (configuration not stated) ? 1% (inactive)

----------
Molecular target: G-protein coupled receptor 151 (Homo sapiens)
Assay: activators of human GPR151, primary screen, cell-based, PathHunter beta-arrestin, luminescence (AID 1508602);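 note: 0% = median of compound wells and 100% = cells with positive control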
Conditions: PathHunter beta-arrestin GPR151 cells, at 11.2 µM
Out of some 650,000 compounds screened, about 6,800 (1%) were called active. Rule as the data show it: active = activation above about 4.9%; inactive = the rest. Shown is part of a subset that was picked to be rich in actives.
Write down the outcome that applies. Available outcomes: active, inactive

Worked examples follow.
[[record]]
molecule = "CCOc1ccc(-n2c(C)cn3c4c(=O)n(CC(C)C)c(=O)n(C)c4nc23)cc1"
label = "inactive"

[[record]]
molecule = "c1ccc(CSc2ncnc3sc4c(c23)CCCC4)cc1"
label = "inactive"

[[record]]
molecule = "Cc1cccc(OCCN2CCNCC2)c1C"
label = "inactive"

[[record]]
molecule = "Cc1cccc(-n2nc3c(c2NC(=O)CCC2CCCCC2)CS(=O)(=O)C3)c1C"
label = "active"

[[record]]
molecule = "O=C(COc1ccc(S(=O)(=O)Nc2ccc(F)cc2)cc1)NC1CCCC1"
label = "inactive"


Any idea what this test logged for `Cc1ccc(C(C)(C)C)c(OCCN2CCNCC2)c1` ? inactive

Any idea what this test logged for `COc1ccc([N+](=O)[O-])cc1NC(=O)c1cccc(Cl)c1Cl` ? inactive

Any idea what this test logged for `CCCOc1ccc(-c2ccc(-c3noc(-c4ccc(OCC)cc4)n3)cc2)cc1` ? inactive

Any idea what this test logged for Cc1ccc(CNC(=O)CN2C(=O)C3C4C=CC(C4)C3C2=O)o1 (stereo unspecified) ? inactive

Any idea what this test logged for `O=C(COc1ccc(S(=O)(=O)NCCc2ccccc2)cc1)NC1CC1` ? active

----------
Biological target: G-protein coupled receptor 151 (Homo sapiens) (UniProt Q8TDV0)
Test: activators of human GPR151, primary screen, cell-based, PathHunter beta-arrestin, luminescence (AID 1508602);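 note: 0% = median of compound wells and 100% = cells with positive control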
Conditions: PathHunter beta-arrestin GPR151 cells, at 11.2 µM, active compounds read high
Out of some 650,000 compounds screened, about 6,800 (1%) were called active. Many of the other results were omitted from the sample, so actives are more common in it than they were.
Known activation of a selection of molecules
Return type: number; implicit unit %.

Reference set, count: 5
[[record]]
molecule = "COC(=O)c1cnn2c1NCN(Cc1ccccc1Cl)C2"
endpoint_name = "activation"
recorded_result = 0.44

[[record]]
molecule = "Cc1ccc(CNC(=O)CSc2nc3ccccc3c(=O)n2CC2CCC(C(=O)NCc3ccco3)CC2)cc1 (stereo not drawn)"
endpoint_name = "activation"
recorded_result = -0.182

[[record]]
molecule = "CC(=O)N1CCN(Cc2ccc3c(c2)CN(Cc2c[nH]c4ccccc24)CCO3)CC1"
endpoint_name = "activation"
recorded_result = 2.78

[[record]]
molecule = "COC(=O)c1sccc1N/N=C/c1ccccn1"
endpoint_name = "activation"
recorded_result = -4.95

[[record]]
molecule = "CCN(CC)c1nc(Nc2ccccc2)nc(N2CCOCC2)n1"
endpoint_name = "activation"
recorded_result = -0.263


What does the record list as activation for `c1ccc(Nc2nccc(Nc3ccc(N4CCOCC4)cc3)n2)cc1` ? 2.16

What does the record list as activation for `CC(=O)c1c(C)[nH]c(C(=O)Nc2cc(S(=O)(=O)N(C)C)ccc2C)c1C` ? 0.871

What does the record list as activation for CCC(C)Nc1nc2c(c(=O)[nH]c(=O)n2C)n1CC(O)COC(C)C (stereo not drawn) ? 5.88

----------
Known activation of a selection of compounds
Biological target: G-protein coupled receptor 151 (Homo sapiens) (UniProt Q8TDV0)
Test: activators of human GPR151, primary screen, cell-based, PathHunter beta-arrestin, luminescence (AID 1508602);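 note: 0% = median of compound wells and 100% = cells with positive control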
Settings: PathHunter beta-arrestin GPR151 cells, at 11.2 µM, active compounds read high
The whole screen tested about 650,000 compounds, of which about 6,800 (1%) were called active. The entries come from a sample that favours actives as a whole.
Return type: number; implicit unit %.

Reference set, count: 2
[[record]]
compound = "Cc1cc(C)c(/C=N/NC(=O)c2nnn(-c3nonc3N)c2CN(C)C)c(C)c1"
assayed_target = "G-protein coupled receptor 151 (Homo sapiens) (UniProt Q8TDV0)"
recorded_result = -0.818

[[record]]
compound = "CC(C)CC(C(=O)Nc1ccc([N+](=O)[O-])cc1)N1C(=O)c2ccccc2C1=O (configuration not stated)"
assayed_target = "G-protein coupled receptor 151 (Homo sapiens) (UniProt Q8TDV0)"
recorded_result = 2.66


What does the record list as activation for CCOC(=O)c1c(NC(=O)COC(=O)C(C)c2c(F)c(F)cc(F)c2F)sc2c1CCCC2 (configuration not stated) ? 1.7

What does the record list as activation for `N#CCCN1c2ccccc2Sc2ccc(C(F)(F)F)cc21` ? 1.1

What does the record list as activation for `CCCc1c(C)nc2c(C(=O)NC3CCCCCCC3)c[nH]n2c1=O` ? 1.02

What does the record list as activation for `COC(=O)c1ccc2c(=O)nc3c(-c4ccccc4)n[nH]n3c2c1` ? -1.93

What does the record list as activation for Cc1cc2c(cc1C)NC(CC(=O)Nc1ccc(Cl)cc1Cl)C(=O)N2 (configuration not stated) ? -1.58

What does the record list as activation for Cc1cccc(NC(=S)N(CCCN2CCCC(C)C2)Cc2cccs2)c1 (configuration not stated) ? 2.67

What does the record list as activation for `Cc1sc(NC(=O)Cc2ccc([N+](=O)[O-])cc2)c(C#N)c1-c1ccccc1` ? -0.519

What does the record list as activation for `COCCCNCc1c(C(=O)O)n(Cc2ccccc2F)c2cc(OC)ccc12` ? 1.64
